For each of the compounds below, state its log10(IC50).
# testTarget: c-Cbl (Homo sapiens (Human))
# testMethodNotes: C-Cbl LCK Ub TR-FRET assay (c-cbl Lck HTRF)
# Type: biochemical
Parameter value (number): base-10 log of IC50 in nM.

Answered cases to consult:
| testSmiles | experimentalReadout | observedResult |
| --- | --- | --- |
| Cn1cnnc1CC1(c2cccc(N3Cc4c(cc(CNC5(C)CCC5)cc4C(F)(F)F)C3=O)c2)CS(=O)(=O)C1 | log10(IC50) | 1.61 |
| Cn1cnnc1[C@H](F)C1(c2cccc(N3Cc4c(cc(CN5CCC5)cc4C(F)(F)F)C3=O)c2)CC(F)(F)C1 | log10(IC50) | 2.18 |
| CN1CC2CC(C1)N2Cc1cc2c(c(C(F)(F)F)c1)CN(c1cccc(C3(Cc4nncn4C)CC(F)(F)C3)c1)C2=O | log10(IC50) | 1.71 |
| Cn1cnnc1[C@H](F)C1(c2cccc(N3Cc4c(cc(CN5CCC[C@H](CO)C5)cc4C(F)(F)F)C3=O)c2)COC1 | log10(IC50) | 1.43 |
| CCCNCc1cc2c(c(C(F)(F)F)c1)CN(c1cc(NCC)cc(C3(Cc4nncn4C)CCC3)c1)C2=O | log10(IC50) | 1.18 |

Working through the 2 compounds below one at a time, give log10(IC50) for each.
1. CC(C)[C@H]1CN(C)CCN1Cc1cc2c(c(C(F)(F)F)c1)CN(c1cccc(C3([C@@H](F)c4nncn4C4CC4)COC3)c1)C2=O
2. Cn1cnnc1CC1(c2cc(NC34CCC(C3)C4)nc(N3Cc4c(cccc4C(F)(F)F)C3=O)c2)COC1

Result:
1.97
3.65

====

# testTarget: c-Cbl (Homo sapiens (Human))
# testMethodNotes: C-Cbl LCK Ub TR-FRET assay (c-cbl Lck HTRF)
# Assay type: biochemical
# conditionInfo: C-cbl Lck HTRF IC50 relative to Cbl-b Lck HTRF IC50
For each of the compounds below, state its (fold-selectivity).
Give bare numbers, in x.

Answered cases to consult:
| compound | (fold-selectivity), x |
| --- | --- |
| Cn1cnnc1[C@H](F)C1(c2cccc(N3Cc4c(I)cccc4C3=O)c2)COC1 [Compound 205] | 2.7 |
| CC(C)[C@H]1CN(C2COC2)CCN1Cc1cc2c(c(C(F)(F)F)c1)CN(c1cccc(C3([C@@H](F)c4nncn4C)COC3)c1)C2=O [Compound 200] | 1.5 |

Let's switch to this compound now.
Record summary for Cn1cnnc1[C@H](F)C1(c2cccc(N3Cc4c(cc([C@@H](N)C5CC5)cc4C(F)(F)F)C3=O)c2)COC1 [Compound 53] : reported (fold-selectivity) = 1.9

====

# testTarget: c-Cbl (Homo sapiens (Human))
# testMethodNotes: C-Cbl LCK Ub TR-FRET assay (c-cbl Lck HTRF)
# Assay type: biochemical
Definition: the class of an entry is the range in bin A = under 20 nM, bin B = from 20 nM up to 70 nM, bin C = 70 nM and over that contains its IC50.

Completed entries (count: 3):
| compound | qualitativeLabel |
| --- | --- |
| COCCOCCNc1cc(C2(Cc3nncn3C)CCC2)cc(N2Cc3c(cc(CNC4(C)CCC4)cc3C(F)(F)F)C2=O)n1 | bin B |
| Cn1cnnc1[C@H](F)C1(c2cccc(N3Cc4c(cc(CN5CCC(F)(CO)CC5)cc4C(F)(F)F)C3=O)c2)COC1 | bin C |
| Cn1cnnc1[C@H](F)C1(c2cccc(N3Cc4c(cccc4C(F)F)C3=O)c2)COC1 | bin C |

Request: Looking at Cn1cnnc1[C@H](F)C1(c2cccc(N3Cc4c(cc(CNC5(C)CCC5)cc4C(F)(F)F)C3=O)c2)COC1 [Compound 230] , which class would you pick?
Result: bin A

Request: Looking at CC(C)Nc1cc([C@H](C)Cc2nncn2C)cc(N2Cc3c(cc(CN4CCC5(CC5)C4)cc3C(F)(F)F)C2=O)n1.O=CO [Compound 55, formate] , which class would you pick?
Result: bin B

Request: Looking at CC(C)[C@H]1CN(C)CCN1Cc1cc2c(c(C(F)(F)F)c1)CN(c1cc(C3([C@@H](F)c4nncn4C)CCC3)cc(NCC3CC3)n1)C2=O , which class would you pick?
Result: bin A

====

# testTarget: c-Cbl (Homo sapiens (Human))
# testMethodNotes: C-Cbl LCK Ub TR-FRET assay (c-cbl Lck HTRF)
# Format: biochemical
# conditionInfo: C-cbl Lck HTRF IC50 relative to Cbl-b Lck HTRF IC50
# Experimental: 6 μL of detection mixture was added to all wells and briefly centrifuged before incubating for 20 min at room temperature. […] IC50 was generated using no LCK as the low control and DMSO as the high control.
experimentalReadout: (fold-selectivity)

Answered cases to consult:
| molecule | experimentalReadout | observedResult |
| --- | --- | --- |
| CCCNCc1cc2c(c(C(F)(F)F)c1)CN(c1cccc(C3([C@@H](F)c4nncn4C)CC(F)(F)C3)c1)C2=O [Compound 445] | (fold-selectivity) | (1.3x) |
| Cn1cnnc1[C@H](F)C1(c2cccc(N3Cc4c(cc(CN5CC6(COC6)C5)cc4C(F)(F)F)C3=O)c2)COC1 [Compound 9] | (fold-selectivity) | 2.1x |
| Cn1cnnc1C(F)(F)C1(c2cccc(N3Cc4c(cccc4C(F)(F)F)C3=O)c2)CC1 [Compound 49] | (fold-selectivity) | 2.0x |
| CC(C)[C@@H]1CN(Cc2cc3c(c(C(F)(F)F)c2)CN(c2cccc(C4([C@H](F)c5nncn5C)COC4)c2)C3=O)CCN1 [Compound 93] | (fold-selectivity) | 1.1x |
| Cn1cnnc1[C@H](F)C1(c2cccc(N3Cc4c(cc(CN5CC6CC5C6)cc4C(F)(F)F)C3=O)c2)COC1 [Compound 86] | (fold-selectivity) | 2.1x |

Let's switch to this molecule now.
Record summary for Cn1cnnc1CC1(c2cc(NCCc3ccncc3)nc(N3Cc4c(cc(CNC5(C)CCC5)cc4C(F)(F)F)C3=O)c2)CCC1 [Compound 321] : reported (fold-selectivity) = (1.3x)

====

# testTarget: c-Cbl (Homo sapiens (Human), UniProt P22681)
# Sequence (P22681 47-435): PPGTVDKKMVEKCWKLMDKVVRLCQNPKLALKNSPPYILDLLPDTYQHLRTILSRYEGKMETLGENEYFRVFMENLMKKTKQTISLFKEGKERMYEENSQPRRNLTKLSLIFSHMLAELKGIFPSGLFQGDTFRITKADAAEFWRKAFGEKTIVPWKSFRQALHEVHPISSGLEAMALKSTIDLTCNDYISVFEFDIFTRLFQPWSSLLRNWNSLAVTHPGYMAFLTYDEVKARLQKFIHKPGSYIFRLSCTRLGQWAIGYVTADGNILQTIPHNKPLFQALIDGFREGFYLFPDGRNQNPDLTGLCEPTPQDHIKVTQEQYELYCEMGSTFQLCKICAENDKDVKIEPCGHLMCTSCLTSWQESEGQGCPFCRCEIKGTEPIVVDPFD
# testMethodNotes: C-Cbl LCK Ub TR-FRET assay (c-cbl Lck HTRF)
# Format: biochemical
experimentalReadout: pIC50
Answers are plain numbers, as −log10 of the molar value.

| compound | pIC50 |
| --- | --- |
| Cn1cnnc1[C@@H](F)C1(c2cccc(N3Cc4c(cc(CN5CC(C)(O)C5)cc4C(F)(F)F)C3=O)c2)CC1 (single isomer, unassigned) | 6.64 |
| Cn1cnnc1[C@H](F)[C@](C)(F)c1cccc(N2Cc3c(cc(CN4CC(C)(F)C4)cc3C(F)(F)F)C2=O)c1 | 6.89 |
| CC(C)[C@H]1CN(C)CCN1Cc1cc2c(c(C(F)(F)F)c1)CN(c1cccc(C3([C@@H](F)c4nc(F)cn4C)COC3)c1)C2=O | 6.33 |
| CC(C)[C@H]1CN(C)CCN1Cc1cc(Cl)c2c(c1)C(=O)N(c1cccc(C3(Cc4nncn4C)CC(F)(F)C3)c1)C2 | 7.96 |
| Cn1cnnc1CC1(c2cc(NCC3CCNCC3)nc(N3Cc4c(cc(CNC5(C)CCC5)cc4C(F)(F)F)C3=O)c2)CCC1 | 6.44 |

Let's switch to this compound now.
Record summary for Cn1cnnc1C[C@]1(c2cccc(N3Cc4c(cccc4C(F)(F)F)C3=O)c2)C[C@@H](F)C1 : reported pIC50 = 6.47

====

# testTarget: c-Cbl (Homo sapiens (Human), UniProt P22681)
# testMethodNotes: C-Cbl LCK Ub TR-FRET assay (c-cbl Lck HTRF)
# Type: biochemical
For each of the compounds below, state its IC50.
Please state the value followed by its unit.

Working through the 3 compounds below one at a time, give IC50 for each.
1. C[C@@H](c1cc2c(c(C(F)(F)F)c1)CN(c1cccc(C3([C@@H](F)c4nncn4C)COC3)c1)C2=O)N1CC(C)(F)C1
2. Cn1cnnc1CC(F)c1cccc(N2Cc3c(cccc3C(F)(F)F)C2=O)c1 (racemic)
3. Cn1cnnc1CC1(c2cccc(N3Cc4c(cc(CNC5CC6(COC6)C5)cc4C(F)(F)F)C3=O)c2)CC(F)(F)C1

Result:
1: 160 nM; 2: 20000 nM; 3: 27 nM

Working through the 3 compounds below one at a time, give IC50 for each.
1. CN1CCN(Cc2cc3c(c(C(F)(F)F)c2)CN(c2cccc(C4(Cc5nncn5C)CC(F)(F)C4)c2)C3=O)[C@H](C2CC2)C1
2. Cn1cnnc1CC1(c2cc(NCCN3CCCC3=O)nc(N3Cc4c(cc(CNC5(C)CCC5)cc4C(F)(F)F)C3=O)c2)CCC1
3. CC(C)[C@H]1CN(C)CCN1Cc1cc2c(c(C(F)(F)F)c1)CN(c1cccc(C3(Cc4nncn4C)CC(F)(F)C3)c1)C2=O [Compound 240]

Result:
["120 nM", "140 nM", "39 nM"]
